Quick reference: EC50 of the listed items.
# MEASUREMENT DESCRIPTION: in vitro
# CONDITION DESCRIPTION: human
Non-standard residues stand in square brackets, D forms with d. Residues, ends and D or L forms follow the SMILES beside them. pGlu = O=C1CC[C@@H](C(=O)O)N1; Sar = CNCC(=O)O

Below, each entry is followed by its recorded EC50 result.
{"COMPOUND": "NC(=O)CC[C@H](N)C(=O)N1CCC[C@H]1C(=O)NCC(N)=O [Q-PG-NH2, glutaminylprolylglycinamide] (H-Gln-Pro-Gly-NH2)", "EC50": "> 1500 µM"}
{"COMPOUND": "NC(=O)CNC(=O)[C@@H]1CCCN1C(=O)[C@@H]1CCC(=O)N1 [PyrQ-PG-NH2, cyclic pyrroglutaminylprolylglycinamide] ([pGlu]-Pro-Gly-NH2)", "EC50": "> 2000 µM"}

Here is another compound to look at.
So what does the record say about EC50 for CNCC(=O)N1CCC[C@H]1C(=O)NCC(N)=O [SAR-PG-NH2, sarcosinylprolylglycinamide] (H-[Sar]-Pro-Gly-NH2) ?
> 1500 µM

---

# System: HIV-2(ROD)
# MEASUREMENT DESCRIPTION: microbe, parasite or virus in culture
# CONDITION DESCRIPTION: Human immunodeficiency virus 2, MT4, read-out: EC50 (MT-4) HIV-2 (ROD), Table 19
TEST READOUT: EC50

{"COMPOUND": "CN1C(=O)C2(CCCCC2)NNC1=S", "TESTED TARGET": "HIV-2(ROD)", "TEST READOUT": "EC50", "VALUE REPORTED": "> 480 µM"}
{"COMPOUND": "NC(=O)C(N)=O [Oxamide, Oxamide (H2NCOCONH2), reference compound]", "TESTED TARGET": "HIV-2(ROD)", "TEST READOUT": "EC50", "VALUE REPORTED": "> 500 µM"}

EC50 of `CN1C(=O)C(C)(C)NNC1=S` on HIV-2(ROD)?
> 580 µM

---

# System: HIV-1 (IIIB)
# MEASUREMENT DESCRIPTION: microbe, parasite or virus in culture
# CONDITION DESCRIPTION: Human immunodeficiency virus 1, IIIB, CCRF-CEM, read-out: EC50 (CEM) HIV-1(IIIB), Table 20
// values below are reported pEC50
Please note pEC50 is a logarithmic value: minus log10 of concentration in mol/L. Answer with that number alone.

{"CHEM SMILES": "CN1C(=O)C2(CCCCC2)NNC1=S", "pEC50": 4.01}

Here is another compound to look at.
# input compound: `CN1C(=O)C(C)(C)NNC1=S` ; wanted: its pEC50
3.94

---

# Tested on: Herpes simplex virus-1 (KOS)
# CONDITION DESCRIPTION: read-out: Minimum inhibitory concentration Herpes simplex virus-1 (KOS); HEL; reduces virus-induced cytopathogenicity by 50%
pEC50: −log10 of the molar value. Residues, ends and D or L forms follow the SMILES beside them.
Overview of recorded pEC50 for various molecules

{"MOLECULE": "NCC(N)=O [G-NH2, glycinamide]", "VALUE REPORTED": "< 2.70"}

Request: pEC50, test system Herpes simplex virus-1 (KOS), entry NCC(=O)N1CCC[C@H]1C(=O)NCC(N)=O [GPG-NH2, glycylprolylglycinamide] (H-Gly-Pro-Gly-NH2)
< 3.40
